# Assay target: ComR F171A/Y174A (ComR-StreptagII double mutant) (Streptococcus thermophilus LMD-9)
# Assay protocol: ITC; peptide 500 μM in the syringe, ComR 50 μM in the cell; 20°C; 20 mM Tris-HCl pH 8.0, 150 mM NaCl, 1 mM EDTA; one-binding-site model; apparent KD (peptide binding and dimerization not told apart)
Readout: pKd
Give bare numbers, as −log10 of the molar value.

Query block: Assign pKd to the following record: LPYFAGCL [XIP octapeptide (ComS 17-24, LPYFAGCL) from Streptococcus thermophilus LMD-9]
Result block: 7.06
